biological target: Candida albicans (Cat. No. 10231, ATCC) whole cells (Candida albicans); test: FACS, IgG on fixed cells
attribute_measured: affinity (nM)

- P2H12 IgG (antibody, V domains shown) VH: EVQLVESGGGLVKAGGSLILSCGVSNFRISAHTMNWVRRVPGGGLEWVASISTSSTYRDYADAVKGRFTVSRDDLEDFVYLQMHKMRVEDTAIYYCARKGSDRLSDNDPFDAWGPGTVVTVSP VL: GVVMTQSPSTLSASVGDTITITCRASQSIETWLAWYQQKPGKAPKLLIYKASTLKTGVPSRFSGSGSGTEFTLTISGLQFDDFATYHCQHYTDHHGATFGQGTRVEIKR: 50
- A2A12 IgG (antibody, V domains shown) VH: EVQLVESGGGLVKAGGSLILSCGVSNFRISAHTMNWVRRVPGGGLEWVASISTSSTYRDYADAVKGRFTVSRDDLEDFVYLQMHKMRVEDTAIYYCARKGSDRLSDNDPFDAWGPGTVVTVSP VL: GVVMTQSPSTLSASVGDTITITCRASQSIETWLAWYQQKPGKAPKLLIYKASTLKTGVPSRFSGSGSGTEFTLTISGLQFDDFATYHCQHYTAHTGATFGQGTRVEIKR: 50
- 2G12 Polymun (Cat. No. AB002, Polymun Scientific) (antibody, V domains shown) VH: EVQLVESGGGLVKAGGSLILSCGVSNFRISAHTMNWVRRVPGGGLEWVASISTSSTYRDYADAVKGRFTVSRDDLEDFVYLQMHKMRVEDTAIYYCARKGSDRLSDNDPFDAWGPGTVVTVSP VL: DVVMTQSPSTLSASVGDTITITCRASQSIETWLAWYQQKPGKAPKLLIYKASTLKTGVPSRFSGSGSGTEFTLTISGLQFDDFATYHCQHYAGYSATFGQGTRVEIKR: 500
